tested-target: TAOK1 (human)
protocol-notes: radiometric filter-binding kinase assay, Kinase HotSpot
assay-setup: compound 0.5 µM; ATP 10 µM
I'd appreciate it if you could supply residual activity values for the items below.
Answers are plain numbers, in %.

Recorded results for 8 compounds are shown here.
>  <smiles-string>
C[C@@H]1CCN(C(=O)CC#N)C[C@@H]1N(C)c1ncnc2[nH]ccc12

>  <residual activity / %>
99.9

$$$$
>  <smiles-string>
Cc1cncc2cccc(S(=O)(=O)N3CCCN(C(=O)CN)C[C@H]3C)c12

>  <residual activity / %>
84.2

$$$$
>  <smiles-string>
Ic1cccc(CSc2nnc(-c3ccncc3)o2)c1

>  <residual activity / %>
101

$$$$
>  <smiles-string>
COc1cc2ncnc(Nc3ccc(OCc4ccccc4)cc3)c2cc1OC

>  <residual activity / %>
94.4

$$$$
>  <smiles-string>
COc1ccc2c(c1)/C(=C/c1cnc[nH]1)C(O)=N2

>  <residual activity / %>
82.3

$$$$
>  <smiles-string>
CCCCc1c(-c2ccc(OC)cc2)[nH]c2nccnc12

>  <residual activity / %>
87

$$$$
>  <smiles-string>
COc1ccc(Cl)cc1NC(=O)Nc1cc(C)nc2ccccc12

>  <residual activity / %>
103

$$$$
>  <smiles-string>
CS(=O)(=O)CCNCc1ccc(-c2ccc3ncnc(Nc4ccc(OCc5cccc(F)c5)c(Cl)c4)c3c2)o1

>  <residual activity / %>
98.8

$$$$

Please give residual activity for each item listed below.
1. CO[C@@H]1[C@H](N(C)C(=O)c2ccccc2)C[C@H]2O[C@]1(C)n1c3ccccc3c3c4c(c5c6ccccc6n2c5c31)C(=O)NC4
2. O=C1c2ccccc2-c2nc3nnnn3nc21

[60.8, 90.2]
